Entries annotated with measured composite z-score
System: Neuregulin-1 EGF-like domain
Experiment: binders of neuregulin-1 EGF-like domain, primary screen, biochemical, small-molecule microarray, 635 nm fluorescence (AID 1081);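 note: binding of the protein to compounds printed on small-molecule microarray slides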
Details: small-molecule microarray binding, higher = more signal
Reply with the value as a number alone.

C=CCNC(=O)[C@@H]1[C@H]2C(=O)O[C@H](c3ccccc3)[C@H](c3ccccc3)N2[C@H](c2ccc(O)cc2)[C@@]12C(=O)Nc1ccc(C#CC3=CCCCC3)cc12 ... 1.06
O=C1C2C=CC(C(O)C(c3ccccc3)c3ccccc3)N(Nc3ccccc3F)C2C(=O)N1c1ccccc1 (centres undefined) ... 1.32
O=C1N(Cc2ccccc2)c2ccccc2C[C@@]12N=C(c1ccc(OCCCO)cc1)O[C@H]2c1ccccc1 ... 1.14

# value lookup — system Neuregulin-1 EGF-like domain, readout composite z-score, item C=C(CCCC)/C(=C/C[C@@H](OC(C)=O)c1ccc(OCCO)cc1)c1cc(C(=O)OC)ccc1OC
1.21

# value lookup — system Neuregulin-1 EGF-like domain, readout composite z-score, item C=CC[C@H](O)c1ccc(O)c2ccccc12
1.3

# value lookup — system Neuregulin-1 EGF-like domain, readout composite z-score, item COc1ccc([Si](C)(C)[C@H]2[C@H](CC(=O)N(CCO)Cc3ccccc3)O[C@@]3(C(=O)N(Cc4cccc(N5CCCCC5=O)c4)c4ccccc43)[C@@H]2C)cc1
0.907

# value lookup — system Neuregulin-1 EGF-like domain, readout composite z-score, item CC(C)c1ccc(NN2C(C(O)C3=C[C@H]4C[C@@H](C3)C4(C)C)C=CC3C(=O)N(c4ccccc4)C(=O)C32)cc1 (some centres undefined)
0.885

# value lookup — system Neuregulin-1 EGF-like domain, readout composite z-score, item COC(=O)[C@]1(Cc2ccccc2N=[N+]=[N-])N=C(c2ccc(OCCCO)cc2)O[C@@H]1c1ccccc1CN=[N+]=[N-]
1.16

# value lookup — system Neuregulin-1 EGF-like domain, readout composite z-score, item COCCOC(=O)N1C(=O)[C@@]2(c3cc(C#CCNC(N)=O)ccc31)[C@H](C(=O)N1CCN(c3ncccn3)CC1)[C@H]1C(=O)O[C@H](c3ccccc3)[C@H](c3ccccc3)N1[C@@H]2c1ccc(O)cc1
-0.475
